- Target system: P2X7 (IL-1β release from THP-1 cells) (Homo sapiens (Human), UniProt Q99572)
- Sequence (Q99572 whole entry): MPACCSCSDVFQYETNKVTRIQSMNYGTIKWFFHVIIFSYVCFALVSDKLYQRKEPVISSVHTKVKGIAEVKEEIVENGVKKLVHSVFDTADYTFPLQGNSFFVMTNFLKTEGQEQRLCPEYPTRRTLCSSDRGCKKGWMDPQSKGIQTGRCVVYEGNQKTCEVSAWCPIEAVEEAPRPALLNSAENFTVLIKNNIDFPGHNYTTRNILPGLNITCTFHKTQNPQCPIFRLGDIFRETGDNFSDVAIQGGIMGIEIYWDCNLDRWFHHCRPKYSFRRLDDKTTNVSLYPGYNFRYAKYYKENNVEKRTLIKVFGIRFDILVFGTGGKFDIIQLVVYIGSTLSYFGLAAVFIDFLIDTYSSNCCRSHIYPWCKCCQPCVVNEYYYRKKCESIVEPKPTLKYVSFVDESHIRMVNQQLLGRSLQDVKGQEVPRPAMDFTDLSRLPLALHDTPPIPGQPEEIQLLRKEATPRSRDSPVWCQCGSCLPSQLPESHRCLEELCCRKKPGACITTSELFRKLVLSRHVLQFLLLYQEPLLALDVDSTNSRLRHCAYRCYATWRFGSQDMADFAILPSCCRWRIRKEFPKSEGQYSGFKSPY
- Assay: IL-1β release assay
- Assay type: cell-based
Quantity: IC50

Known results for molecules:
COCCn1cc(C(=O)NCC2(OC)CCC(F)(F)CC2)c2c(Cl)cccc21 :: 101 to 500 nM
O=C(NCC1C[C@@H]2CC[C@H]1C2)c1cn(C2CCOC2)c2cccc(Cl)c12 (some centres unmarked) :: 101 to 500 nM
O=C(NCC1(O)CCCC1)c1cn(C2COC2)c2cccc(Cl)c12 :: 500 to 999 nM
O=C1NC[C@H](Cn2cc(C(=O)NCC3CCC(F)(F)CC3)c3c(Cl)cccc32)O1 :: 10 to 100 nM
O=C(NCC1CCC(F)(F)CC1)c1cn(CC2CCCNC2)c2cccc(Cl)c12 (centres unmarked) :: 10 to 100 nM
CCN(CC)C(=O)Cn1cc(C(=O)NCC2CCC(F)(F)CC2)c2c(Cl)cccc21 :: 101 to 500 nM
O=C(NCC1CCC(F)(F)CC1)c1cn(C[C@@H]2CCN2)c2cccc(Cl)c12 :: 10 to 100 nM

In: Form: Entry = O=C(NCC1CCC(F)(F)CC1)c1cn(CC2CCNC2)c2cccc(Cl)c12 (centres unmarked) | System = P2X7 (IL-1β release from THP-1 cells) (Homo sapiens (Human), UniProt Q99572) | IC50 = ____
Out: 101 to 500 nM

---

- Target system: P2X7 (IL-1β release from THP-1 cells) (Homo sapiens (Human), UniProt Q99572)
- Assay: IL-1β release assay
- Assay type: cell-based
- Settings: THP-1 cells, LPS primed, 0.8 mM BzATP; mature IL-1β by sandwich ELISA; read-out: hTHP-1/IL-ib IC50
Quantity: IC50

CC1CC(CNC(=O)c2cn(CC3CCCN3)c3cccc(Cl)c23)CC(F)(F)C1 (centres unmarked) [Compound 157] :: < 0.01 µM
O=C(NCC1(O)CCCC(F)(F)C1)c1cn(CC2CCCN2)c2cccc(Cl)c12 (centres unmarked) [Compound 155] :: < 0.01 µM
CCC1CCCC(O)(CNC(=O)c2cn(CC3CCCO3)c3cccc(Cl)c23)C1 (centres unmarked) [Compound 137] :: > 1 µM

In: What value of IC50 on P2X7 (IL-1β release from THP-1 cells) (Homo sapiens (Human), UniProt Q99572) does O=C(NCC1CCCOC1)c1cn(C2COC2)c2cccc(Cl)c12 (centres unmarked) [Compound 74] have?
Out: > 1 µM

In: Thanks! And O=C(NCC1CCC(F)(F)CC1)c1cn(CC2CCCN2)c2cccc(Cl)c12 (centres unmarked) [Compound 158] ?
Out: < 0.01 µM

In: Request: COCCn1cc(C(=O)NC(CO)c2cccc(C(F)(F)F)c2Cl)c2c(Cl)cccc21 (centres unmarked) [Compound 32]
Out: 0.5 to 0.999 µM

In: Param item: CCC1CCCC(O)(CNC(=O)c2cn(CCOC)c3cccc(Cl)c23)C1 (centres unmarked) [Compound 22]
Out: > 1 µM

In: COCCn1cc(C(=O)NCC(C)c2ccccc2Cl)c2c(Cl)cccc21 (centres unmarked) [Compound 33] ?
Out: > 1 µM

---

As shown below, each of these molecules has a reported IC50 value.
- Target system: P2X7 (IL-1β release from THP-1 cells) (Homo sapiens (Human))
- Assay: IL-1β release assay
- Assay type: cell-based

In: Reported IC50 for P2X7 (IL-1β release from THP-1 cells) (Homo sapiens (Human)), given O=C(NCC1C[C@@H]2CC[C@H]1C2)c1cn(C2COC2)c2cccc(Cl)c12 (some centres unmarked) [Compound 59] ?
Out: 10 to 100 nM

In: Try this molecule too: O=C(NCC1CCC(F)(F)CC1)c1cn(CC2(O)CC2)c2cccc(Cl)c12 [Compound 117]
Out: 101 to 500 nM

In: Try O=C(NCC1(O)CCCC(F)(F)C1)c1cn(C[C@H]2CCCO2)c2cccc(Cl)c12 (some centres unmarked) [Compound 133] next.
Out: 10 to 100 nM

In: Also CC(C(=O)N(C)C)n1cc(C(=O)NCC2CCC(F)(F)CC2)c2c(Cl)cccc21 (centres unmarked) [Compound 200] ?
Out: 10 to 100 nM

In: Again, but for O=C(NCC1(O)CCCCCC1)c1cn(C2COC2)c2cccc(Cl)c12 [Compound 65]
Out: 101 to 500 nM

In: What about this molecule? C[C@@H]1CCC[C@](O)(CNC(=O)c2cn(C3CCOC3)c3cccc(Cl)c23)C1 (some centres unmarked) [Compound 113]
Out: 10 to 100 nM
